So I've got a bunch of sequences here, and I need their solubility change mitosis (log2) values.
# Tested on: HeLa Kyoto
# protocolText: solubility change mitosis vs G1/S (difference of NP-40 vs SDS log2 ratios) (log2 ratio difference); higher = more soluble in mitosis
Give a plain numeric answer without units written out.

// query solubility change mitosis (log2) value for entry MPEAPPLLLAAVLLGLVLLVVLLLLLRHWGWGLCLIGWNEFILQPIHNLLMGDTKEQRILNHVLQHAEPGNAQSVLEAIDTYCEQKEWAMNVGDKKGKIVDAVIQEHQPSVLLELGAYCGYSAVRMARLLSPGARLITIEINPDCAAITQRMVDFAGVKDKVTLVVGASQDIIPQLKKKYDVDTLDMVFLDHWKDRYLPDTLLLEECGLLRKGTVLLADNVICPGAPDFLAHVRGSSCFECTHYQSFLEYREVVDGLEKAIYKGPGSEAGP [COMT]
-0.128

// query solubility change mitosis (log2) value for entry MAAAGARPVELGFAESAPAWRLRSEQFPSKVGGRPAWLGAAGLPGPQALACELCGRPLSFLLQVYAPLPGRPDAFHRCIFLFCCREQPCCAGLRVFRNQLPRKNDFYSYEPPSENPPPETGESVCLQLKSGAHLCRVCGCLGPKTCSRCHKAYYCSKEHQTLDWRLGHKQACAQPDHLDHIIPDHNFLFPEFEIVIETEDEIMPEVVEKEDYSEIIGSMGEALEEELDSMAKHESREDKIFQKFKTQIALEPEQILRYGRGIAPIWISGENIPQEKDIPDCPCGAKRILEFQVMPQLLNYLKADRLGKSIDWGILAVFTCAESCSLGTGYTEEFVWKQDVTDTP [PDCD2]
-0.0555

// query solubility change mitosis (log2) value for entry MAETEERSLDNFFAKRDKKKKKERSNRAASAAGAAGSAGGSSGAAGAAGGGAGAGTRPGDGGTASAGAAGPGAATKAVTKDEDEWKELEQKEVDYSGLRVQAMQISSEKEEDDNEKRQDPGDNWEEGGGGGGGMEKSSGPWNKTAPVQAPPAPVIVTETPEPAMTSGVYRPPGARLTTTRKTPQGPPEIYSDTQFPSLQSTAKHVESRKDKEMEKSFEVVRHKNRGRDEVSKNQALKLQLDNQYAVLENQKSSHSQYN [CDV3]
0.0994

---

# Test system: HeLa Kyoto
# protocolText: thermal stability score vs G1/S (z-score of summed log2 fold changes over temperatures); higher = more thermally stable than in G1/S
# conditionsUsed: cell cycle stage: mitosis
experimentalReadout: thermal stability score

// query thermal stability score value for entry MKFLLDILLLLPLLIVCSLESFVKLFIPKRRKSVTGEIVLITGAGHGIGRLTAYEFAKLKSKLVLWDINKHGLEETAAKCKGLGAKVHTFVVDCSNREDIYSSAKKVKAEIGDVSILVNNAGVVYTSDLFATQDPQIEKTFEVNVLAHFWTTKAFLPAMTKNNHGHIVTVASAAGHVSVPFLLAYCSSKFAAVGFHKTLTDELAALQITGVKTTCLCPNFVNTGFIKNPSTSLGPTLEPEEVVNRLMHGILTEQKMIFIPSSIAFLTTLERILPERFLAVLKRKISVKFDAVIGYKMKAQ [HSD17B11]
-3.33

// query thermal stability score value for entry MANEAYPCPCDIGHRLEYGGLGREVQVEHIKAYVTKSPVDAGKAVIVIQDIFGWQLPNTRYIADMISGNGYTTIVPDFFVGQEPWDPSGDWSIFPEWLKTRNAQKIDREISAILKYLKQQCHAQKIGIVGFCWGGTAVHHLMMKYSEFRAGVSVYGIVKDSEDIYNLKNPTLFIFAENDVVIPLKDVSLLTQKLKEHCKVEYQIKTFSGQTHGFVHRKREDCSPADKPYIDEARRNLIEWLNKYM [CMBL]
-0.238

// query thermal stability score value for entry MGEKSENCGVPEDLLNGLKVTDTQEAECAGPPVPDPKNQHSQSKLLRDDEAHLQEDQGEEECFHDCSASFEEEPGADKVENKSNEDVNSSELDEEYLIELEKNMSDEEKQKRREESTRLKEEGNEQFKKGDYIEAESSYSRALEMCPSCFQKERSILFSNRAAARMKQDKKEMAINDCSKAIQLNPSYIRAILRRAELYEKTDKLDEALEDYKSILEKDPSIHQAREACMRLPKQIEERNERLKEEMLGKLKDLGNLVLRPFGLSTENFQIKQDSSTGSYSINFVQNPNNNR [TTC1]
-2.41

// query thermal stability score value for entry MATHGQTCARPMCIPPSYADLGKAARDIFNKGFGFGLVKLDVKTKSCSGVEFSTSGSSNTDTGKVTGTLETKYKWCEYGLTFTEKWNTDNTLGTEIAIEDQICQGLKLTFDTTFSPNTGKKSGKIKSSYKRECINLGCDVDFDFAGPAIHGSAVFGYEGWLAGYQMTFDSAKSKLTRNNFAVGYRTGDFQLHTNVNDGTEFGGSIYQKVCEDLDTSVNLAWTSGTNCTRFGIAAKYQLDPTASISAKVNNSSLIGVGYTQTLRPGVKLTLSALVDGKSINAGGHKVGLALELEA [VDAC2]
-4.22

// query thermal stability score value for entry MEGCVSNLMVCNLAYSGKLEELKESILADKSLATRTDQDSRTALHWACSAGHTEIVEFLLQLGVPVNDKDDAGWSPLHIAASAGRDEIVKALLGKGAQVNAVNQNGCTPLHYAASKNRHEIAVMLLEGGANPDAKDHYEATAMHRAAAKGNLKMIHILLYYKASTNIQDTEGNTPLHLACDEERVEEAKLLVSQGASIYIENKEEKTPLQVAKGGLGLILKRMVEG [PSMD10]
1.31

// query thermal stability score value for entry MKMKLFQTICRQLRSSKFSVESAALVAFSTSSYSCGRKKKVNPYEEVDQEKYSNLVQSVLSSRGVAQTPGSVEEDALLCGPVSKHKLPNQGEDRRVPQNWFPIFNPERSDKPNASDPSVPLKIPLQRNVIPSVTRVLQQTMTKQQVFLLERWKQRMILELGEDGFKEYTSNVFLQGKRFHEALESILSPQETLKERDENLLKSGYIESVQHILKDVSGVRALESAVQHETLNYIGLLDCVAEYQGKLCVIDWKTSEKPKPFIQSTFDNPLQVVAYMGAMNHDTNYSFQVQCGLIVVAYKDGSPAHPHFMDAELCSQYWTKWLLRLEEYTEKKKNQNIQKPEYSE [MGME1]
-1.05

// query thermal stability score value for entry MLSESSSFLKGVMLGSIFCALITMLGHIRIGHGNRMHHHEHHHLQAPNKEDILKISEDERMELSKSFRVYCIILVKPKDVSLWAAVKETWTKHCDKAEFFSSENVKVFESINMDTNDMWLMMRKAYKYAFDKYRDQYNWFFLARPTTFAIIENLKYFLLKKDPSQPFYLGHTIKSGDLEYVGMEGGIVLSVESMKRLNSLLNIPEKCPEQGGMIWKISEDKQLAVCLKYAGVFAENAEDADGKDVFNTKSVGLSIKEAMTYHPNQVVEGCCSDMAVTFNGLTPNQMHVMMYGVYRLRAFGHIFNDALVFLPPNGSDND [C1GALT1C1]
-0.609

// query thermal stability score value for entry MAPLDLDKYVEIARLCKYLPENDLKRLCDYVCDLLLEESNVQPVSTPVTVCGDIHGQFYDLCELFRTGGQVPDTNYIFMGDFVDRGYYSLETFTYLLALKAKWPDRITLLRGNHESRQITQVYGFYDECQTKYGNANAWRYCTKVFDMLTVAALIDEQILCVHGGLSPDIKTLDQIRTIERNQEIPHKGAFCDLVWSDPEDVDTWAISPRGAGWLFGAKVTNEFVHINNLKLICRAHQLVHEGYKFMFDEKLVTVWSAPNYCYRCGNIASIMVFKDVNTREPKLFRAVPDSERVIPPRTTTPYFL [PPP6C]
-2.31

// query thermal stability score value for entry MAWTKYQLFLAGLMLVTGSINTLSAKWADNFMAEGCGGSKEHSFQHPFLQAVGMFLGEFSCLAAFYLLRCRAAGQSDSSVDPQQPFNPLLFLPPALCDMTGTSLMYVALNMTSASSFQMLRGAVIIFTGLFSVAFLGRRLVLSQWLGILATIAGLVVVGLADLLSKHDSQHKLSEVITGDLLIIMAQIIVAIQMVLEEKFVYKHNVHPLRAVGTEGLFGFVILSLLLVPMYYIPAGSFSGNPRGTLEDALDAFCQVGQQPLIAVALLGNISSIAFFNFAGISVTKELSATTRMVLDSLRTVVIWALSLALGWEAFHALQILGFLILLIGTALYNGLHRPLLGRLSRGRPLAEESEQERLLGGTRTPINDAS [SLC35F6]
-5.04
